EXPERIMENTAL_SYSTEM: mGluR5 (h) (Homo sapiens, UniProt P41594)
Sequence (P41594 21-1212): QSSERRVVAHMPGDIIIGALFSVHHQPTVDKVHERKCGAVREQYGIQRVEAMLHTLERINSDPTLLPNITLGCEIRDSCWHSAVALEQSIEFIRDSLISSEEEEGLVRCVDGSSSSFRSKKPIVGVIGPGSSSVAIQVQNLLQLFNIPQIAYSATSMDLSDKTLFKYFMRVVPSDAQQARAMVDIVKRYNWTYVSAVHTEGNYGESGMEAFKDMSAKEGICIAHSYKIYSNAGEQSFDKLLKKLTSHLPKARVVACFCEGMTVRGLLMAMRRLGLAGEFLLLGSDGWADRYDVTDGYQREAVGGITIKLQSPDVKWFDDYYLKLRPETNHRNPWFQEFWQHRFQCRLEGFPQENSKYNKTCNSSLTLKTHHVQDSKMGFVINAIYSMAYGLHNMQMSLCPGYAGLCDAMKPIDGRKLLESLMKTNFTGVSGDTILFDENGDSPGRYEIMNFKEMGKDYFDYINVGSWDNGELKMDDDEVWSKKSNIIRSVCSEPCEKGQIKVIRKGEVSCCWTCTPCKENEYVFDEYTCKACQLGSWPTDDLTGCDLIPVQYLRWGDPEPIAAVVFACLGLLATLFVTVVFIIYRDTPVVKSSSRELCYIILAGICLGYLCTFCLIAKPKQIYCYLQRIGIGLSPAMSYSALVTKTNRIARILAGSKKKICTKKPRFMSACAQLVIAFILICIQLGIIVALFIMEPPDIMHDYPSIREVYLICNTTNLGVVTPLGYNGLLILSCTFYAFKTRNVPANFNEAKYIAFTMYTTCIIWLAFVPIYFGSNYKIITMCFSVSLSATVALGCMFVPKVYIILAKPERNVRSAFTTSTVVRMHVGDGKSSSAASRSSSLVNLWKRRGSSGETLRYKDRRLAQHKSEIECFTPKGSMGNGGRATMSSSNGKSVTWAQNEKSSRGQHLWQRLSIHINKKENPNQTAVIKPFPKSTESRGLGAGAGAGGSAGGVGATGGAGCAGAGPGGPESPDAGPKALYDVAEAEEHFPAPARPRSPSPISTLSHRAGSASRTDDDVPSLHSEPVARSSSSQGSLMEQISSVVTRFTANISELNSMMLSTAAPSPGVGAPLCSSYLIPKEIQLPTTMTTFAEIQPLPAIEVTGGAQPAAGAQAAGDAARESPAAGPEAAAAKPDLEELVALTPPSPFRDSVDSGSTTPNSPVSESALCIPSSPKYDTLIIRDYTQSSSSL
ASSAY_PROCEDURE: Eurofins panel: mGluR5 (h) (agonist radioligand)
CONDITIONS_USED: read-out: Concurrent IC50, Specific binding; reference compound; mGluR5 (h)
VALUE_TYPE: IC50
Please format your answer as a value with the unit trailing.

Lookup: Reported IC50 for N[C@@H](Cn1oc(=O)[nH]c1=O)C(=O)O [L-Quisqualate] : what is it?
Found: 0.0426 µM

----------
EXPERIMENTAL_SYSTEM: CYP1A2 (Homo sapiens, UniProt P05177)
Sequence (P05177 whole entry): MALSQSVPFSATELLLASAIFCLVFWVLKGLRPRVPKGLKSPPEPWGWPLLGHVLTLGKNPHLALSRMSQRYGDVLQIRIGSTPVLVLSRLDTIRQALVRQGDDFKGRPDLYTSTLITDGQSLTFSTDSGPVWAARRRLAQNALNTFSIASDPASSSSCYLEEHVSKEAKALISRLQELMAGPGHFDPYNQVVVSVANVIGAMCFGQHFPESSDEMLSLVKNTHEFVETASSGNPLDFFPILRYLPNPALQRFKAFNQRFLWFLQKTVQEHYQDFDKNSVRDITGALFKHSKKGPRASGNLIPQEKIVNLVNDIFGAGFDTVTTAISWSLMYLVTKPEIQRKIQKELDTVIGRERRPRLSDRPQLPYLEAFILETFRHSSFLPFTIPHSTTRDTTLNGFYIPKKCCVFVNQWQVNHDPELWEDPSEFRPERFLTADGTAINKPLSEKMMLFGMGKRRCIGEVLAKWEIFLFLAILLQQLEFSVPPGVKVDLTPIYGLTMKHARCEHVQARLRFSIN
ASSAY_PROCEDURE: in vitro
CONDITIONS_USED: human liver microsomes, probe tacrine
VALUE_TYPE: inhibition at 10 µM (%)
Report the value in % with no unit label.

Lookup: Reported inhibition at 10 µM for "Fc1nc(N2CCOCC2)ccc1-c1cc2ccccc2[nH]1" : what is it?
Found: -10.4

----------
EXPERIMENTAL_SYSTEM: aggregated tau (4R-tau) in CBD brain tissue homogenates (Homo sapiens, UniProt P10636)
Sequence (P10636 1-441 isoform P10636-8): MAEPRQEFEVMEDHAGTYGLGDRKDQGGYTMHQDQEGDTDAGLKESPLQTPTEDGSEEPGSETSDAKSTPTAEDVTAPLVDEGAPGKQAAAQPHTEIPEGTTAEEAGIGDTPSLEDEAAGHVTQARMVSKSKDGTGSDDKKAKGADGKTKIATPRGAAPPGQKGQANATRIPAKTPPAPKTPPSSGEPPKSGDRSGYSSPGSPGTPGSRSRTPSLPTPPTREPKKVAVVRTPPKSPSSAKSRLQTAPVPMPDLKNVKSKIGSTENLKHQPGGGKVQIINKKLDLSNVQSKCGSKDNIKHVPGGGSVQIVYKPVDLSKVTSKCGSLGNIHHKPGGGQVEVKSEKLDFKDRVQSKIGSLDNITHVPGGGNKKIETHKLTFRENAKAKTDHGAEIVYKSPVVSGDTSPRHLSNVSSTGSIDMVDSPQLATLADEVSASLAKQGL
CONDITIONS_USED: read-out: Ki versus [^3H]7, CBD tissue; CBD brain tissue homogenate; radioligand [^3H]7 ∼1 nM
VALUE_TYPE: Ki

Lookup: Reported Ki for "OC1CCN(c2ncc(-c3cc4ccc(F)cc4[nH]3)cn2)CC1" : what is it?
Found: 22 nM

Lookup: Reported Ki for "Fc1ccc2cc(-c3cnc(N4CCOCC4)nc3)[nH]c2c1" : what is it?
Found: 11 nM

----------
EXPERIMENTAL_SYSTEM: aggregated tau (4R-tau) in PSP brain tissue homogenates (Homo sapiens, UniProt P10636)
Construct: from tissue
Sequence (P10636 1-441 isoform P10636-8): as the sequence (P10636 1-441 isoform P10636-8) above
ASSAY_PROCEDURE: In vitro competition (Ki) assay versus [^3H]3, PSP brain tissue homogenate
Format: binding
CONDITIONS_USED: radioligand [^3H]3 ∼1 nM
VALUE_TYPE: Ki (nM)
Report the value in nM with no unit label.

Lookup: Reported Ki for O[C@H]1CCN(c2ccc(-c3cc4ccc(F)cc4[nH]3)cn2)C1 [Compound 9, reference compound] : what is it?
Found: 37

----------
EXPERIMENTAL_SYSTEM: human recombinant MAO-B (Homo sapiens)
Sequence (P27338 whole entry): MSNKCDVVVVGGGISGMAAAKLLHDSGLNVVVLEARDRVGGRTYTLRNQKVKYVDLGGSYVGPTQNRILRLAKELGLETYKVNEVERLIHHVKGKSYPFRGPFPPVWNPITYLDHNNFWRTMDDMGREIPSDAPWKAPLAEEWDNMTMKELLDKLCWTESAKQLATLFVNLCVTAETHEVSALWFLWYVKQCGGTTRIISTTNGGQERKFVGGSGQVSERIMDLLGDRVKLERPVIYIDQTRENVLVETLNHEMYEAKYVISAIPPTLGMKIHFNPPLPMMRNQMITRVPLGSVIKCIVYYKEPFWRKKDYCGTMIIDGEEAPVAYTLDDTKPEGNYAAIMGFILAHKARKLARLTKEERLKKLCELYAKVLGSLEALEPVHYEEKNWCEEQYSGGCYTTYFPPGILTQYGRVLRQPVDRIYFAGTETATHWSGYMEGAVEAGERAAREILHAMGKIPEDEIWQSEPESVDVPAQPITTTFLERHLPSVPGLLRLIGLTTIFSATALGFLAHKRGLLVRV
ASSAY_PROCEDURE: Eurofins IC50 determination at human recombinant MAO-B
VALUE_TYPE: IC50 (µM)
Report the value in µM with no unit label.

Lookup: // fetch human recombinant MAO-B (Homo sapiens) IC50 for Fc1nc(N2CCOCC2)ccc1-c1cc2ccccc2[nH]1 [Compound 75]
Found: 3

----------
ASSAY_PROCEDURE: Log D7.4, octanol/aqueous buffer shake-flask method
CONDITIONS_USED: pH 7.4
VALUE_TYPE: logD
Reply: number alone, nothing else.

Lookup: Reported logD for [18F]c1nc(N2CCOCC2)ccc1-c1cc2ccccc2[nH]1 [[^18F]75] : what is it?
Found: 1.96

Lookup: Reported logD for [18F]c1nc(N2CCCCC2)ccc1-c1cc2ccccc2[nH]1 [[^18F]74] : what is it?
Found: 1.8

----------
EXPERIMENTAL_SYSTEM: ATPase (Na+/K+)
ASSAY_PROCEDURE: Eurofins panel: ATPase (Na+/K+) enzymatic activity
CONDITIONS_USED: reference compound, read-out: Concurrent IC50, Enzymatic activity
VALUE_TYPE: pIC50
In textbook form, pIC50 equals minus log to base ten of the concentration in mol/L.

Lookup: Reported pIC50 for C[C@@H]1O[C@@H](O[C@H]2C[C@@H](O)[C@]3(CO)[C@H]4[C@H](O)C[C@]5(C)[C@@H](C6=CC(=O)OC6)CC[C@]5(O)[C@@H]4CC[C@]3(O)C2)[C@H](O)[C@H](O)[C@H]1O [ouabain] : what is it?
Found: 6.24

----------
EXPERIMENTAL_SYSTEM: UniProtKB P10635
Sequence (P10635 whole entry): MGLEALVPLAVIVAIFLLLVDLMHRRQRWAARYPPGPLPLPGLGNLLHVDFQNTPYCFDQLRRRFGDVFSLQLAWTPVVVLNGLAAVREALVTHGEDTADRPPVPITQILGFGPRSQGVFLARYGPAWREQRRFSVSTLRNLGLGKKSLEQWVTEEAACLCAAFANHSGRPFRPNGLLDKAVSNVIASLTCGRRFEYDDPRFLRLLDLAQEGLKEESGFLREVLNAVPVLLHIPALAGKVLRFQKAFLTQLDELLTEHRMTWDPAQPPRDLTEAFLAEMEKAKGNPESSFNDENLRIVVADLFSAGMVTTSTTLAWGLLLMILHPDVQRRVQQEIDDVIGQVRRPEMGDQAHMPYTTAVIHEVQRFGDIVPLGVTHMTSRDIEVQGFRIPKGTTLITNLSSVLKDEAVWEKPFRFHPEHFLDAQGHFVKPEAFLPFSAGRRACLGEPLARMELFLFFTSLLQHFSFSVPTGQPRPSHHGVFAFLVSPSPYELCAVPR
ASSAY_PROCEDURE: in vitro
CONDITIONS_USED: human liver microsomes, probe dextromethorphan
VALUE_TYPE: inhibition at 10 µM
Please format your answer as a value with the unit trailing.

Lookup: // fetch UniProtKB P10635 inhibition at 10 µM for "Fc1nc(N2CCOCC2)ccc1-c1cc2ccccc2[nH]1"
Found: 13.6%

----------
EXPERIMENTAL_SYSTEM: GABAA1 (h) (alpha1,beta2,gamma2) (Homo sapiens, UniProt P14867+P47870)
ASSAY_PROCEDURE: GABAA1 (h) (alpha1,beta2,gamma2) (agonist radioligand), Eurofins assay 3051
VALUE_TYPE: pIC50
In textbook form, pIC50 equals minus log to base ten of the concentration in mol/L.

Lookup: Reported pIC50 for "NCc1cc(=O)[nH]o1" : what is it?
Found: 7.23

----------
Please provide measured Ki for the entries that follow.
EXPERIMENTAL_SYSTEM: aggregated tau (mixed 3R/4R-tau) in AD brain tissue homogenates (Homo sapiens, UniProt P10636)
ASSAY_PROCEDURE: In vitro competition (Ki) assay versus [^3H]7, AD brain tissue homogenate
Assay type: binding
CONDITIONS_USED: radioligand [^3H]7 ∼1 nM
Sequence (P10636 623-695 limits assumed): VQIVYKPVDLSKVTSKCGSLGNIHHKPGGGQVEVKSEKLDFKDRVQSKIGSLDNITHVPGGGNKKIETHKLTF
Report the value in µM with no unit label.

Lookup: Reported Ki for N#Cc1ccc2cc(-c3cnc(N4CC(O)C(F)C4)nc3)[nH]c2c1 (stereo not shown) : what is it?
Found: 0.12

Lookup: Reported Ki for "Fc1ccc2cc(-c3cnc(N4CCOCC4)nc3)[nH]c2c1" : what is it?
Found: 0.0084

Lookup: Reported Ki for O[C@H]1CCN(c2ccc(-c3cc4ccc(F)cc4[nH]3)cn2)C1 [Compound 9, reference compound] : what is it?
Found: 0.011

Lookup: Reported Ki for "Cn1c(-c2cnc(N3CCOCC3)nc2)cc2ccc(F)cc21" : what is it?
Found: 0.022

Lookup: Reported Ki for "OC1CCN(c2ncc(-c3cc4cc(F)ccc4o3)cn2)CC1" : what is it?
Found: 0.045

Lookup: Reported Ki for "OC1CCN(c2ncc(-c3cc4cc(F)ccc4[nH]3)cn2)CC1" : what is it?
Found: 0.021

Lookup: Reported Ki for "OC1CCN(c2ncc(-c3cc4ccc(F)cc4[nH]3)cn2)CC1" : what is it?
Found: 0.012

Lookup: Reported Ki for "Fc1ccc2cc(-c3cnc(N4CCC(F)(F)CC4)nc3)[nH]c2c1" : what is it?
Found: 0.037

Lookup: Reported Ki for "OC1CCN(c2ncc(-c3cc4ccccc4[nH]3)cn2)CC1" : what is it?
Found: 0.011

Lookup: Reported Ki for OC1CN(c2ncc(-c3cc4ccccc4[nH]3)cn2)CC1F (stereo not shown) : what is it?
Found: 0.039

----------
EXPERIMENTAL_SYSTEM: 5-HT2C (h) (Homo sapiens, UniProt P28335)
Sequence (P28335 33-458): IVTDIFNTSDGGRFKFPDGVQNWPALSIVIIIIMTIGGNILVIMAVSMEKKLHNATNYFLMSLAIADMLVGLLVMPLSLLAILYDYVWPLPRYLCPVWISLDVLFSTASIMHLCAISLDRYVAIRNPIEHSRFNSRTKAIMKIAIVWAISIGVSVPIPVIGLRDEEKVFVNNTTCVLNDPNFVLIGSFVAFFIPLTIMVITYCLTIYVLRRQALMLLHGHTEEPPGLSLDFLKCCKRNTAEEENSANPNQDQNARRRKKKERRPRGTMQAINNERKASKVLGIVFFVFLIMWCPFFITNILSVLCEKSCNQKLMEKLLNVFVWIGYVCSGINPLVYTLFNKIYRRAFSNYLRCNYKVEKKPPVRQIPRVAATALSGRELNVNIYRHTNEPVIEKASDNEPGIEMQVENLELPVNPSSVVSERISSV
ASSAY_PROCEDURE: Eurofins panel: 5-HT2C (h) (agonist radioligand)
CONDITIONS_USED: read-out: Concurrent IC50, Specific binding; reference compound; 5-HT2C (h)
VALUE_TYPE: pIC50
In textbook form, pIC50 equals minus log to base ten of the concentration in mol/L.

Lookup: // fetch 5-HT2C (h) (Homo sapiens, UniProt P28335) pIC50 for COc1cc(CC(C)N)c(OC)cc1I (racemic) [(±)DOI]
Found: 9.18

----------
Please provide measured pKi for the entries that follow.
EXPERIMENTAL_SYSTEM: aggregated tau (mixed 3R/4R-tau) in AD brain tissue homogenates (Homo sapiens)
ASSAY_PROCEDURE: In vitro competition (Ki) assay versus [^3H]8, AD brain tissue homogenate
Format: binding
CONDITIONS_USED: radioligand [^3H]8 ∼1 nM
Sequence (P10636 623-708 limits assumed): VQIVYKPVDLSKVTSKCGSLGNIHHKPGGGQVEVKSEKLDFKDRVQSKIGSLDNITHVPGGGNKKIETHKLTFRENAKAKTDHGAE
In textbook form, pKi equals minus log to base ten of the concentration in mol/L.

Lookup: Reported pKi for N#Cc1ccc2cc(-c3cnc(N4CC(O)C(F)C4)nc3)[nH]c2c1 (stereo not shown) [Compound 24] : what is it?
Found: 7.13

Lookup: Reported pKi for Fc1ccc2cc(-c3cnc(N4CCOCC4)nc3)[nH]c2c1 [Compound 8] : what is it?
Found: 8.11

Lookup: Reported pKi for OC1CCN(c2ncc(-c3cc4ccc(F)cc4[nH]3)cn2)CC1 [Compound 7] : what is it?
Found: 8.17

Lookup: Reported pKi for Fc1ccc2cc(-c3ncc(N4CCOCC4)cc3F)[nH]c2c1 [Compound 104] : what is it?
Found: 7.77

Lookup: Reported pKi for O[C@H]1CCN(c2ccc(-c3cc4ccc(F)cc4[nH]3)cn2)C1 [Compound 9, reference compound] : what is it?
Found: 8.00

Lookup: Reported pKi for OC1CN(c2ncc(-c3cc4ccccc4[nH]3)cn2)CC1F (stereo not shown) [Compound 28] : what is it?
Found: 7.47

Lookup: Reported pKi for Fc1ccc2cc(-c3cnc(N4CCOCC4)cc3F)[nH]c2c1 [Compound 88] : what is it?
Found: 7.96

----------
EXPERIMENTAL_SYSTEM: CYP2C19 (Homo sapiens)
Sequence (P33261 whole entry): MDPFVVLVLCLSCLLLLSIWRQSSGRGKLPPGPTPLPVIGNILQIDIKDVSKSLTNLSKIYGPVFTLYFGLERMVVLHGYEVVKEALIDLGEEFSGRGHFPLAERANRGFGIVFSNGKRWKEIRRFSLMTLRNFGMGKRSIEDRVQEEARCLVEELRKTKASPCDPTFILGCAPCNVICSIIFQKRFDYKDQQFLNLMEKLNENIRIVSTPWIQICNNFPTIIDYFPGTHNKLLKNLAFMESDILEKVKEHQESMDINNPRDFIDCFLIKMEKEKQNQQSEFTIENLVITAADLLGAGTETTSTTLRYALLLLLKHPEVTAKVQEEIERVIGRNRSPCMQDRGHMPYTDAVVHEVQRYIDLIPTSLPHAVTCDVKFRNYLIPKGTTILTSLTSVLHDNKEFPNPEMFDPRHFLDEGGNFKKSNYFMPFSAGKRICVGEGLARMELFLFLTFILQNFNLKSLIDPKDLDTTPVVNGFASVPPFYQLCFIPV
ASSAY_PROCEDURE: in vitro
CONDITIONS_USED: human liver microsomes, probe omeprazole
VALUE_TYPE: inhibition at 10 µM
Please format your answer as a value with the unit trailing.

Lookup: // fetch CYP2C19 (Homo sapiens) inhibition at 10 µM for "Fc1nc(N2CCOCC2)ccc1-c1cc2ccccc2[nH]1"
Found: -0.914%
